# Tested on: murine macrophage cells
# Protocol: nitric oxide production by murine macrophage cells (Griess)
# Type: cell-based, C57/BL6 mice
# Cond: lowest concentration inducing a significant response
Strictly below 0.3 µg/mL in Min concentration: fulfilled. Otherwise: not fulfilled.

[
  {
    "Compound": "CCCCCCCCCCCC(=O)O[C@H](CCCCCCCCCCC)CC(=O)N[C@H](CC(=O)O)C(=O)NCCC[C@H](COC(=O)CCCCCNC(=O)CCC(=O)OC[C@@H]1C=C[C@H](n2cc(C)c(=O)[nH]c2=O)O1)NC(=O)C[C@H](O)CCCCCCCCCCC",
    "Cat": "not fulfilled"
  },
  {
    "Compound": "CCCCCCCCCCCC(=O)O[C@H](CCCCCCCCCCC)CC(=O)NC(CCOP(=O)(O)O)C(=O)NCCCC(COC(=O)CCCCC(O)CO)NC(=O)C[C@H](O)CCCCCCCCCCC (some centres unmarked)",
    "Cat": "fulfilled"
  },
  {
    "Compound": "CCCCCCCCCCCC(=O)O[C@H](CCCCCCCCCCC)CC(=O)N[C@@H](CCOP(=O)(O)O)C(=O)NCCC[C@H](COC(=O)CCCCCO)NC(=O)C[C@H](O)CCCCCCCCCCC [OM-197-MP-AC (S, R)]",
    "Cat": "not fulfilled"
  }
]

Find out if reported Min concentration for `CCCCCCCCCCCC(=O)O[C@H](CCCCCCCCCCC)CC(=O)N[C@H](CC(=O)O)C(=O)NCCC[C@H](COC(=O)CCCCCNC(=O)CCC(=O)OC[C@H]1O[C@@H](n2cc(C)c(=O)[nH]c2=O)C[C@@H]1N=[N+]=[N-])NC(=O)C[C@H](O)CCCCCCCCCCC` is less than 0.3 µg/mL not fulfilled

Find out if reported Min concentration for `CCCCCCCCCCCC(=O)O[C@H](CCCCCCCCCCC)CC(=O)N[C@H](CC(=O)O)C(=O)NCCC[C@H](COC(=O)CCCCCNC(=O)CCC(=O)O)NC(=O)C[C@H](O)CCCCCCCCCCC` is less than 0.3 µg/mL fulfilled

###

Reported Max amplitude values for the following molecules.
# Tested on: bone marrow stem cells
# Protocol: bone marrow stem cell proliferation (XTT)
# Format: cell-based, C57/BL6 mice
# Cond: 7 days, XTT 492 nm

// worked examples, Max amplitude included
[
  {
    "Molecule": "CCCCCCCCCCCC(=O)O[C@H](CCCCCCCCCCC)CC(=O)N[C@H](CC(=O)O)C(=O)NCCC[C@H](COC(=O)CCCCCNC(=O)CCC(=O)O)NC(=O)C[C@H](O)CCCCCCCCCCC [OM-197-MC-AC-Succ]",
    "Readout type": "Max amplitude",
    "Test result": "> 1.65 O.D"
  },
  {
    "Molecule": "CCCCCCCCCCCC(=O)O[C@H](CCCCCCCCCCC)CC(=O)N[C@H](CC(=O)O)C(=O)NCCC[C@H](COP(=O)(O)O)NC(=O)C[C@H](O)CCCCCCCCCCC [OM-197-MC-MP]",
    "Readout type": "Max amplitude",
    "Test result": "> 1.60 O.D"
  }
]

For the next question, use this molecule.
// Max amplitude lookup, molecule = CCCCCCCCCCCC(=O)O[C@H](CCCCCCCCCCC)CC(=O)N[C@H](CC(=O)N[C@@H](CCCCN)C(=O)O)C(=O)NCCC[C@H](COC(=O)CCCCCN)NC(=O)C[C@H](O)CCCCCCCCCCC [OM-197-Lys-AC] , result: > 2.02 O.D

Reference source: patent US8173133B2
